The reported numbers originate from PubChem BioAssay AID179.

Tested on: CEM cells HIV-1 protection, formazan growth assay
Assay: NCI AIDS Antiviral Assay;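 active = compounds giving half or more protection of infected cells from virus-caused growth loss, again on retest; inactive = the rest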
Entry note: the call must match one of True (active), False (inactive)

Compound	Class label
COc1c(OC(C)C)c(OC(C)C)c2oc(=O)n3c2c1C(c1ccccc1-n1c(C)ccc1C)C=C3 (stereo not given)	False

Outcome? CC(=O)Nc1ccc(C(=O)NN2C(=O)C(Cl)C2c2ccc(O)cc2)cc1 (stereo not given)
False

Another compound: `CN(C)CCNC(=O)c1cccc(C(C)(C)C)c1[N+](=O)[O-]`
False

Repeat with `CC(=O)c1sc2c(c1OC(=O)c1ccc(Cl)cc1)c(=O)n(-c1ccccc1)c(=S)n2-c1ccccc1`
False

// next record CN1C(=O)OC2OC(C)(c3ccc(S(=O)(=O)c4ccccc4)cc3)C(=O)CC21 (stereo not given)
False

And then C=C(C)C1CC2=C(O1)C(=O)c1ccccc1C2=O (stereo not given) , what is it?
False

Moving on to the next compound: `CCc1cccc(C(C)(C)C)c1NC(=S)N/C=C(/C#N)C(N)=O`
False

Ok, now `C1=Cc2nc1c(-c1ccccc1)c1ccc([nH]1)c(-c1ccccc1)c1nc(c(-c3ccccc3)c3ccc([nH]3)c2-c2ccccc2)C=C1`
False

Moving on to the next compound: O=C(N/C(=C\c1ccccc1O)C1NC(Cc2c[nH]c3ccccc23)C(=O)O1)c1ccccc1 (stereo not given)
False

Please do the same for CC(=O)OC1CC2C(C)(C)C(=O)C=C[C@]2(C)C2CCC3(C)C(=CC(=O)C3c3ccoc3)[C@]12C (stereo not given in full) as well.
False

Same for `C[C@]12CC[C@H]3[C@@H](CCC4=CC(=O)[C@H](Br)C[C@@]43C)[C@@H]1CC[C@@H]2C(=O)CBr`
False

Try `COc1ccc(C(=O)/C=C/c2ccc(OCC#N)cc2)cc1OC` next.
False

Cool, now COC(=O)C1C(=O)C(C(=O)OC)C2C(C(=O)OC)C(=O)C(C(=O)OC)C12 (stereo not given)
True

// query: O=C1OC2C=CC1C1(CCOC1=O)C2 (stereo not given)
False

Note, next up: CN1C(=S)NC2C(O)C(O)C(CO)OC21 (stereo not given)
False

Please answer likewise for `Nc1nccc(CC(O)(c2ccccc2)c2ccccc2)n1`
False

Also `COc1ccc(C(=O)N/N=C/c2c(C)n(C)n(-c3ccccc3)c2=O)cc1` , if possible.
False

Note, next up: `N#Cc1c(SCc2ccccc2)nc(-c2ccccc2)[nH]c1=S`
False

# repeat for `Cc1cccc(NC(=O)NCCOC(=O)OCCNC(=O)Nc2cccc(C)c2C)c1C`
False

Also need `O=C(CSc1nc(-c2ccccc2)c(-c2ccccc2)[nH]1)N/N=C/c1ccc(O)cc1` , thanks.
False

###

System: CEM cells HIV-1 protection, formazan growth assay
Assay: NCI AIDS Antiviral Assay;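 active = compounds giving half or more protection of infected cells from virus-caused growth loss, again on retest; inactive = the rest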
Where a SMILES comes first, the peptide text is derived from it.
Select the correct class. Options are yes (1) (active), no (0) (inactive) and nothing else.

Worked set:
Compound	Class label
Nc1cc2c3c(cccc3c1)C(=O)N(CCN1CCCC1)C2=O	no (0)
CN(C)c1ccc(/C=c2\sc3nnc(-c4ccco4)n3c2=O)cc1	no (0)
C[C@@H](NC(=O)CNC(=O)OC(C)(C)C)C(=O)N[C@@H](Cc1ccccc1)C(=O)OCc1ccccc1 (HELM PEPTIDE1{[CC(C)(C)OC(=O)[*:2]].G.[dA].F.[c1ccc(CO[*:1])cc1]}$$$$V2.0)	no (0)
CC1(C)CN=C(Nc2ccc(F)c(F)c2)S1	no (0)
Nc1nnc(Sc2ccc([N+](=O)[O-])cc2)s1	no (0)

Hello, I am checking results. What call was entered for `CCOC(=O)C(=O)NCCCN1CCOCC1` ?
no (0)

Let us now turn to `CN(C)c1ccc(/C=C(\C#N)c2ccc(Cl)cc2)c(Cl)c1`
no (0)

Likewise for `Cc1cc(S(=O)(=O)O)ccc1N=Nc1ccc(N=Nc2cc(S(=O)(=O)O)c3ccccc3c2O)c(C)c1` ?
no (0)

Please answer likewise for COc1cc2c(c(O)c1C)C(=O)CC(c1ccccc1)O2 (stereo unspecified)
no (0)

Another compound to check: Cn1c2c(c3ccccc31)C1C(=O)N(c3ccccc3)C(=O)C1CC2 (stereo unspecified)
no (0)

Check CCCCCCCCCCCCCCCCCCCCC(C(=O)OCC)S(=O)(=O)O (stereo unspecified) too.
no (0)

// query: Cc1ccc([P+](Cc2ccccc2)(c2ccccc2)c2cccc3ccccc23)cc1 (stereo unspecified)
no (0)

Next up: O=C1NS(=O)(=O)C2C(Cl)=C(Cl)C3(Cl)C2C13Cl (stereo unspecified)
no (0)

Same lookup for `O=C(NNC(=S)NC1CCCCC1)C12CC3CC(CC(C3)C1)C2` , please.
no (0)

// next record `CC[C@@H]1C[C@H]2CC3c4[nH]c5ccc(O)cc5c4CCN(C2)C31`
yes (1)

Similarly, `CCOC(=O)c1sc2c(c1OC(=O)c1ccc(Cl)cc1Cl)c(=O)n(-c1ccccc1)c(=S)n2-c1ccccc1` ?
no (0)

Consider next the compound `O=C1OCC(CN2CCC(n3c(=O)[nH]c4ccccc43)CC2)=C1c1ccccc1` in the same way.
no (0)

Now this one: `CCOC(=O)c1c(NC(=S)NCc2ccccc2)sc2c1CCN(C)C2`
no (0)

For CC(=O)O[C@]12CCCCCCC1C1(O)C(O)CCC[C@H]12 (stereo partly specified) then?
no (0)
